# assayMethodText: Chemical stability assessed as half life at neutrality pH
# Type: physicochemical
recordedEndpoint: half-life (min)

- smilesText: "COC(=O)CCc1ccccc1N"
  number: 57

----------
# assayMethodText: Stability assessed as half life at pH 4 by HPLC
# Format: physicochemical
# setupConditions: buffer

- smilesText: "C[C@]12CCC(=O)C=C1CC[C@@H]1[C@@H]2[C@@H](O)C[C@@]2(C)[C@H]1CC[C@]2(O)C(=O)COC(=O)CCc1ccccc1N"
  uom: "min"
  half-life: 30

----------
# assayMethodText: Stability assessed as half life at pH 8 by HPLC
# Assay type: physicochemical
# setupConditions: buffer

- smilesText: "C[C@]12CCC(=O)C=C1CC[C@@H]1[C@@H]2[C@@H](O)C[C@@]2(C)[C@H]1CC[C@]2(O)C(=O)COC(=O)CCc1ccccc1N"
  uom: "min"
  half-life: 44

Ref: ChEMBL document CHEMBL1138508
